Entries and their EC50 values follow.
Target: CFTR-mediated chloride transport (Homo sapiens, UniProt P13569)
Assay: Corrector Assay A - membrane potential dye assay (enteroid cells)
Details: read-out: Corrector Assay A EC50; human intestinal enteroid cells, 18-24 h incubation; acute 10 μM forskolin + 300 nM ivacaftor

| Compound | EC50 |
| --- | --- |
| CC(C)(C)c1ccc2c(n1)N1C[C@@H](CC[C@@H](C3CCCCC3)Nc3cccc(n3)S(=O)(=O)NC2=O)CC1(C)C (single isomer, unassigned) [Compound 235] | < 1 µM |
| CC(C)(C)c1ccc2c(n1)N1C[C@@H](CCC(c3ccc(C4=CCOCC4)cn3)Nc3cccc(n3)S(=O)(=O)NC2=O)CC1(C)C (stereo partly drawn) [Compound 167] | < 1 µM |
| CC(C)(C)c1ccc2c(n1)N1C[C@@H](CCC(c3ccc(-c4cc[nH]n4)cn3)Nc3cccc(n3)S(=O)(=O)NC2=O)CC1(C)C (stereo partly drawn) [Compound 130] | < 1 µM |
| CC(C)(C)c1ccc2c(n1)N1C[C@@H](CC[C@H](c3cccc(C(F)(F)F)n3)Nc3cccc(n3)S(=O)(=O)NC2=O)CC1(C)C (single isomer, unassigned) | < 1 µM |
| CC(C)(C)c1ccc2c(n1)N1C[C@@H](CC[C@@H](c3cccc(CCC#N)n3)Nc3cccc(n3)S(=O)(=O)NC2=O)CC1(C)C | > 3 µM |
| COC(=O)CCc1ccc(C2CC[C@@H]3CN(c4nc(C(C)(C)C)ccc4C(=O)NS(=O)(=O)c4cccc(n4)N2)C(C)(C)C3)nc1 (stereo partly drawn) [Compound 90] | < 1 µM |
